Recorded IC50 for the following compounds
# TGT: HNE (Homo sapiens)
# Construct: purchased Athens Research and Technology
# Sequence (P08246 30-267): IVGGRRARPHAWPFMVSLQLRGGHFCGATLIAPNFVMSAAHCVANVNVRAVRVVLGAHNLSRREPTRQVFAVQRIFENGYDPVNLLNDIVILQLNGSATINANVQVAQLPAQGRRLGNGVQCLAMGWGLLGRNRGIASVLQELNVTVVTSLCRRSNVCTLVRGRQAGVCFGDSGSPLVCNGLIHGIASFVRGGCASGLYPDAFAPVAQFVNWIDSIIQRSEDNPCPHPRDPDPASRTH
# PROTOCOL_NOTES: Enzymatic activity assay, HNE (fluorogenic substrate MeOSuc-AAPV-AMC)
# Format: biochemical
# TEST_CONDITIONS: best enantiomer for compounds 5-8; read-out: pIC50 HNE (converted)
// return numeric value only (unit: nM, not printed)

See these solved cases before continuing.
CNc1nc2n(n1)[C@H](c1ccc(C#N)cc1)C(C#N)=C(C)N2c1cccc(C(F)(F)F)c1 ... 1.26
CC1=C(C#N)[C@@H](c2ccc(C#N)cc2)n2nc(NC(=O)C3CC3)nc2N1c1cccc(C(F)(F)F)c1 ... 0.794
COC(=O)Nc1nc2n(n1)[C@H](c1ccc(C#N)cc1)C(C#N)=C(C)N2c1cccc(C(F)(F)F)c1 ... 1.26

Look at this compound and give its reported IC50. `CNC(=O)Nc1nc2n(n1)[C@H](c1ccc(C#N)cc1)C(C#N)=C(C)N2c1cccc(C(F)(F)F)c1`
0.794
